Hello, the source for this data is ChEMBL document CHEMBL1137729, in case you need it.

For each of the compounds below, state its Activity.
Tested on: Mus musculus
Test: Toxicity in ovariectomized ICR mouse assessed as lung weight at 110.3 nmol/kg, po treated for 4 weeks measured after 1 day of last treatment
Format: organism-based
Details: in vivo, 24 h
Residues, ends and D or L forms follow the SMILES beside them. *: point of attachment. Succinyl(O17-estradiol) = C[C@]12CC[C@@H]3c4ccc(O)cc4CC[C@H]3[C@@H]1CC[C@@H]2OC(=O)CCC(=O)*; Acetyl(estradiol-3-yloxy) = C[C@]12CC[C@@H]3c4ccc(OCC(=O)*)cc4CC[C@H]3[C@@H]1CC[C@@H]2O
Only the number, expressed in g, is required.

Item C[C@]12CC[C@@H]3c4ccc(O)cc4CC[C@H]3[C@@H]1CC[C@@H]2OC(=O)CCC(=O)N[C@@H](CCCNC(=N)N)C(=O)NCC(=O)N[C@@H](CC(=O)O)C(=O)N[C@@H](Cc1ccccc1)C(=O)N[C@@H](CCCNC(=N)N)C(=O)NCC(=O)N[C@@H](CC(=O)O)C(=O)N[C@@H](Cc1ccccc1)C(=O)O ({Succinyl(O17-estradiol)}-RGDFRGDF-OH) has what recorded Activity?
0.109

Item C[C@]12CC[C@@H]3c4ccc(OCC(=O)N[C@@H](CCCNC(=N)N)C(=O)NCC(=O)N[C@@H](CC(=O)O)C(=O)N[C@@H](CO)C(=O)O)cc4CC[C@H]3[C@@H]1CC[C@@H]2O ({Acetyl(estradiol-3-yloxy)}-RGDS-OH) has what recorded Activity?
0.128

Item CC(C)[C@H](NC(=O)[C@H](CC(=O)O)NC(=O)CNC(=O)[C@H](CCCNC(=N)N)NC(=O)CCC(=O)O[C@H]1CC[C@H]2[C@@H]3CCc4cc(O)ccc4[C@H]3CC[C@]12C)C(=O)O ({Succinyl(O17-estradiol)}-RGDV-OH) has what recorded Activity?
0.125

Item C[C@]12CC[C@@H]3c4ccc(O)cc4CC[C@H]3[C@@H]1CC[C@@H]2OC(=O)CCC(=O)N[C@@H](CCCNC(=N)N)C(=O)NCC(=O)N[C@@H](CC(=O)O)C(=O)N[C@@H](CO)C(=O)N[C@@H](CCCNC(=N)N)C(=O)NCC(=O)N[C@@H](CC(=O)O)C(=O)N[C@@H](CO)C(=O)O ({Succinyl(O17-estradiol)}-RGDSRGDS-OH) has what recorded Activity?
0.116

Item C[C@]12CC[C@@H]3c4ccc(OCC(=O)N[C@@H](CCCNC(=N)N)C(=O)NCC(=O)N[C@@H](CC(=O)O)C(=O)N[C@@H](CO)C(=O)N[C@@H](CCCNC(=N)N)C(=O)NCC(=O)N[C@@H](CC(=O)O)C(=O)N[C@@H](CO)C(=O)O)cc4CC[C@H]3[C@@H]1CC[C@@H]2O ({Acetyl(estradiol-3-yloxy)}-RGDSRGDS-OH) has what recorded Activity?
0.11

Item C[C@]12CC[C@@H]3c4ccc(O)cc4CC[C@H]3[C@@H]1CC[C@@H]2OC(=O)CCC(=O)N[C@@H](CCCNC(=N)N)C(=O)NCC(=O)N[C@@H](CC(=O)O)C(=O)N[C@@H](CO)C(=O)O ({Succinyl(O17-estradiol)}-RGDS-OH) has what recorded Activity?
0.12

Item C[C@]12CC[C@@H]3c4ccc(O)cc4CC[C@H]3[C@@H]1CC[C@@H]2O has what recorded Activity?
0.12

Item C[C@]12CC[C@@H]3c4ccc(OCC(=O)N[C@@H](CCCNC(=N)N)C(=O)NCC(=O)N[C@@H](CC(=O)O)C(=O)N[C@@H](Cc5ccccc5)C(=O)N[C@@H](CCCNC(=N)N)C(=O)NCC(=O)N[C@@H](CC(=O)O)C(=O)N[C@@H](Cc5ccccc5)C(=O)O)cc4CC[C@H]3[C@@H]1CC[C@@H]2O ({Acetyl(estradiol-3-yloxy)}-RGDFRGDF-OH) has what recorded Activity?
0.119

Item C[C@]12CC[C@@H]3c4ccc(OCC(=O)N[C@@H](CCCNC(=N)N)C(=O)NCC(=O)N[C@@H](CC(=O)O)C(=O)N[C@@H](Cc5ccccc5)C(=O)O)cc4CC[C@H]3[C@@H]1CC[C@@H]2O ({Acetyl(estradiol-3-yloxy)}-RGDF-OH) has what recorded Activity?
0.112

* * *

For each of the compounds below, state its Activity.
Test system: Mus musculus
Experiment: Toxicity in ovariectomized ICR mouse assessed as liver weight at 110.3 nmol/kg, po treated for 4 weeks measured after 1 day of last treatment
Assay type: organism-based
Conditions: in vivo, 24 h
Residues, ends and D or L forms follow the SMILES beside them. *: point of attachment. Succinyl(O17-estradiol) = C[C@]12CC[C@@H]3c4ccc(O)cc4CC[C@H]3[C@@H]1CC[C@@H]2OC(=O)CCC(=O)*; Acetyl(estradiol-3-yloxy) = C[C@]12CC[C@@H]3c4ccc(OCC(=O)*)cc4CC[C@H]3[C@@H]1CC[C@@H]2O
Only the number, expressed in g, is required.

Item C[C@]12CC[C@@H]3c4ccc(OCC(=O)N[C@@H](CCCNC(=N)N)C(=O)NCC(=O)N[C@@H](CC(=O)O)C(=O)N[C@@H](Cc5ccccc5)C(=O)O)cc4CC[C@H]3[C@@H]1CC[C@@H]2O ({Acetyl(estradiol-3-yloxy)}-RGDF-OH) has what recorded Activity?
1.336

Item CC(C)[C@H](NC(=O)[C@H](CC(=O)O)NC(=O)CNC(=O)[C@H](CCCNC(=N)N)NC(=O)COc1ccc2c(c1)CC[C@@H]1[C@@H]2CC[C@]2(C)[C@@H](O)CC[C@@H]12)C(=O)O ({Acetyl(estradiol-3-yloxy)}-RGDV-OH) has what recorded Activity?
1.4

Item C[C@]12CC[C@@H]3c4ccc(OCC(=O)N[C@@H](CCCNC(=N)N)C(=O)NCC(=O)N[C@@H](CC(=O)O)C(=O)N[C@@H](Cc5ccccc5)C(=O)N[C@@H](CCCNC(=N)N)C(=O)NCC(=O)N[C@@H](CC(=O)O)C(=O)N[C@@H](Cc5ccccc5)C(=O)O)cc4CC[C@H]3[C@@H]1CC[C@@H]2O ({Acetyl(estradiol-3-yloxy)}-RGDFRGDF-OH) has what recorded Activity?
1.439

Item C[C@]12CC[C@@H]3c4ccc(OCC(=O)N[C@@H](CCCNC(=N)N)C(=O)NCC(=O)N[C@@H](CC(=O)O)C(=O)N[C@@H](CO)C(=O)N[C@@H](CCCNC(=N)N)C(=O)NCC(=O)N[C@@H](CC(=O)O)C(=O)N[C@@H](CO)C(=O)O)cc4CC[C@H]3[C@@H]1CC[C@@H]2O ({Acetyl(estradiol-3-yloxy)}-RGDSRGDS-OH) has what recorded Activity?
1.448

Item C[C@]12CC[C@@H]3c4ccc(O)cc4CC[C@H]3[C@@H]1CC[C@@H]2O [ESTRADIOL] has what recorded Activity?
1.552

Item C[C@]12CC[C@@H]3c4ccc(O)cc4CC[C@H]3[C@@H]1CC[C@@H]2OC(=O)CCC(=O)N[C@@H](CCCNC(=N)N)C(=O)NCC(=O)N[C@@H](CC(=O)O)C(=O)N[C@@H](Cc1ccccc1)C(=O)O ({Succinyl(O17-estradiol)}-RGDF-OH) has what recorded Activity?
1.266

Item C[C@]12CC[C@@H]3c4ccc(O)cc4CC[C@H]3[C@@H]1CC[C@@H]2OC(=O)CCC(=O)N[C@@H](CCCNC(=N)N)C(=O)NCC(=O)N[C@@H](CC(=O)O)C(=O)N[C@@H](CO)C(=O)O ({Succinyl(O17-estradiol)}-RGDS-OH) has what recorded Activity?
1.537

Item C[C@]12CC[C@@H]3c4ccc(O)cc4CC[C@H]3[C@@H]1CC[C@@H]2OC(=O)CCC(=O)N[C@@H](CCCNC(=N)N)C(=O)NCC(=O)N[C@@H](CC(=O)O)C(=O)N[C@@H](Cc1ccccc1)C(=O)N[C@@H](CCCNC(=N)N)C(=O)NCC(=O)N[C@@H](CC(=O)O)C(=O)N[C@@H](Cc1ccccc1)C(=O)O ({Succinyl(O17-estradiol)}-RGDFRGDF-OH) has what recorded Activity?
1.266

Item C[C@]12CC[C@@H]3c4ccc(OCC(=O)N[C@@H](CCCNC(=N)N)C(=O)NCC(=O)N[C@@H](CC(=O)O)C(=O)N[C@@H](CO)C(=O)O)cc4CC[C@H]3[C@@H]1CC[C@@H]2O ({Acetyl(estradiol-3-yloxy)}-RGDS-OH) has what recorded Activity?
1.492

Item C[C@]12CC[C@@H]3c4ccc(O)cc4CC[C@H]3[C@@H]1CC[C@@H]2OC(=O)CCC(=O)N[C@@H](CCCNC(=N)N)C(=O)NCC(=O)N[C@@H](CC(=O)O)C(=O)N[C@@H](CO)C(=O)N[C@@H](CCCNC(=N)N)C(=O)NCC(=O)N[C@@H](CC(=O)O)C(=O)N[C@@H](CO)C(=O)O ({Succinyl(O17-estradiol)}-RGDSRGDS-OH) has what recorded Activity?
1.479

Item CC(C)[C@H](NC(=O)[C@H](CC(=O)O)NC(=O)CNC(=O)[C@H](CCCNC(=N)N)NC(=O)CCC(=O)O[C@H]1CC[C@H]2[C@@H]3CCc4cc(O)ccc4[C@H]3CC[C@]12C)C(=O)O ({Succinyl(O17-estradiol)}-RGDV-OH) has what recorded Activity?
1.55
